# Tested on: Malme-3M
# Test: NCI tumour cell line growth inhibition, 48 h
Active and inactive are the calls of the source. Rule as the data show it: active = GI50 up to about 1.1 µM and inactive = higher.
Outcome (select one): active, inactive

What call does the record list for `Cc1ccc(/C=N\NC(=O)c2ccncc2)s1` ?
inactive

Give the logged outcome of this assay for the following compound: `Nc1nc(Sc2ccc([N+](=O)[O-])cn2)c2nc[nH]c2n1`
inactive

Tell me the recorded outcome of this test for CCN(CC)CC(C(=O)Nc1c(C)cccc1C)/C(C)=N\NC(=O)c1ccncc1 (centres undefined) .
inactive

// param item: `N=C(N)SCCON1C(=O)c2ccccc2C1=O` ; yields the recorded call
inactive

Write down the call the test reported for this compound. Item: `O=C(O)CN(CC(=O)O)c1ccccc1`
inactive

Query: recorded result category for `Cc1cc2ccccc2oc(=O)/c1=N\Nc1ccccc1` in this test
inactive

Dear all, I need the recorded test outcome for C[C@@H](NC1CCCC[C@@H]1O)c1ccccc1 (some centres undefined) , thank you.
inactive

For this compound, state the assay outcome: CC(=O)N1N=C(c2ccc3ccccc3c2O)CC1C(=O)c1ccco1 (centres undefined)
inactive

Status in this test for `Cc1ccc(C(=O)CC(O)(C(F)(F)F)C(F)(F)F)cc1[N+](=O)[O-]` ?
inactive

What call does the record list for `O=C(Cn1c2c(c3ccccc31)CCCC2)N1CCOCC1` ?
inactive

Just curious, what result did CS(=O)(=O)OC1CN2CCC1CC2 (centres undefined) get here?
inactive

Please share the test call associated with CC1(C)C(=O)C2(OS(=O)(=O)C(F)(F)F)CCC1C2 (centres undefined) .
inactive

Would you mind telling me which call this test gave `C/C(=N\NC(=O)c1ccncc1)c1ccccc1F` ?
inactive

// return assay outcome for CCOC(=O)C(C(CC(=O)OC)NC(=O)OCc1ccccc1)C1(C)OCCO1 (centres undefined)
inactive

Just curious, what result did COc1ccc(CC2OC3(CCCCC3)CC3CCCCN32)cc1 (centres undefined) get here?
inactive

Tell me the recorded outcome of this test for `Clc1ccc(SCCCCCCCCCCSc2ccc(Cl)cc2)cc1` .
inactive

Any idea what this test logged for COc1cc(/C=C/C2=NN(c3cccc(S(=O)(=O)O)c3)C3(C2)SCC(=O)N3c2nc3ccccc3s2)cc(OC)c1OC (centres undefined) ?
inactive

GET /call?item= C=C1C(=O)OC2/C=C(\CO)CC/C=C(\CO)CC(OC(=O)C(C)C)C12 (centres undefined) returns the recorded outcome of this test.
inactive

Hi team, can someone confirm the assay call for `CC(/C=N\NC(=S)N(C)C)=N/NC(=S)N(C)C` ?
active

// return assay outcome for `CN(CCNC(=O)c1n[nH]c2c1Cc1ccccc1-2)CCNC(=O)c1n[nH]c2c1Cc1ccccc1-2`
inactive

Could you kindly confirm the outcome this assay logged for `CCOC(=O)c1[nH]c2c(OC)n[n+]([O-])cc2c1[N+](=O)[O-]` ?
inactive

How was `CCOC(=O)c1nc2cc(C(F)(F)F)ccc2nc1Oc1ccc(C#N)cc1` classified in this test?
inactive

What outcome does the record of this test show for COc1cc(C2SC(=N)Nc3c2c(C)nn3C(=O)c2ccc(Cl)cc2)ccc1O (centres undefined) ?
inactive

Which result was noted for this compound in the test: `O=C(O)CNS(=O)(=O)c1ccc(NC(=O)CI)cc1`
inactive

Could you please tell me the result logged for `Nc1n/c(=N\c2ccccc2)ss1` in this assay?
inactive

Kindly provide the recorded test outcome for the following compound: `O=C(Nc1ccccc1-c1nn(C(=S)Nc2ccccc2)c(=S)n(C(=S)Nc2ccccc2)c1=O)C(F)(F)F`
inactive

Assay result, entry CC1Cc2cc(O)c(O)cc2-c2cc(O)c(O)cc2CC1C (centres undefined) — outcome?
inactive

Hi, do you know how `CCc1ccc2c(c1)/C(=C1/Nc3ccccc3/C1=N/O)C(=O)N2` came out in this test?
inactive

Which outcome was entered for the compound CC(=O)c1c2c(cc3c1CC1(C3)Cc3cc4c(c(C(=O)O)c3C1)CCCC4)CCCC2.CC(N)c1ccccc1 (centres undefined) in this test?
inactive

Outcome? O=C1NC2C3CC(OCc4ccccc4)(OCc4ccccc4)C2OC3O1 (centres undefined)
inactive

Please indicate how the test categorized `O=C1c2cc([N+](=O)[O-])ccc2-c2ccc3c4ccc5c6c(ccc(c7ccc1c2c73)c64)C(=O)c1cc([N+](=O)[O-])ccc1-5` .
inactive

What did this assay record as the result for CC/C=C/c1cc2cc[nH]c2c2c1C(C)C[C@@H]2C (some centres undefined) ?
inactive

Could you kindly confirm the outcome this assay logged for `Cc1ccc2c(ccc(/C=C\c3cc(C)c4cccnc4c3O)[n+]2C)c1` ?
inactive

# fetch the recorded call for `COc1ccc(/C=C2\N=C(SC)NC2=O)cc1` here
inactive

Test call, this compound: `COc1ccccc1NC(=O)CC(=O)n1nc(C)c(/N=N/c2ccccc2C(=O)O)c1C`
inactive

Please share the test call associated with `C/C(=N\NC(=S)N(C)C)c1ccccn1` .
active

Any idea what this test logged for `CC(=O)NC1=C(Nc2ccc(C)cc2)C(=O)c2ccccc2C1=O` ?
inactive

I would be grateful if you could indicate the recorded call for `C[C@H](O)CCC(=O)c1ccoc1` .
inactive

Write down the call the test reported for this compound. Item: CCOC1=C2N=C(C(CC)c3ccc(F)cc3)N=C2C(=O)c2ccccc21 (centres undefined)
inactive

Answer briefly: the call reported for CN(C(=O)C12C3C4C5C3C1(C(=O)C13C6C7C8C6C1C8C73)C5C42)C(C)(C)C (centres undefined) in this assay.
inactive

// param item: CCOC(=O)C1=C(C)N(NC(N)=O)C2(N)N(NC(N)=O)C(C)=C(C(=O)OCC)C12C#N (centres undefined) ; yields the recorded call
inactive

Write down the call the test reported for this compound. Item: CCCC(Sc1nc(N)nc2nc[nH]c12)C(=O)O (centres undefined)
inactive

Which result was noted for this compound in the test: C[C@H]1C(=O)CC[C@]2(C)CCC(C(C)(C)O)CC12O (some centres undefined)
inactive

Look up the recorded call for `O=C(c1cccc2ccccc12)N1CCC(C2CCN(C(=O)c3cccc4ccccc34)CC2)CC1` in this test.
inactive
